System: NCI-H2023
Run Description: relative viability (nuclei count vs DMSO), 5 days (fraction); higher = more cells survive
Experimental Context: first compound 2.53 µM
Value Type: relative viability
Lab note: record just the number, no unit beside it.

Request: relative viability for COc1nc(C)cnc1NS(=O)(=O)c1cccnc1-c1ccc(-c2nnco2)cc1 [Zibotentan] + CC1(C)CCC(c2ccc(Cl)cc2)=C(CN2CCN(c3ccc(C(=O)NS(=O)(=O)c4ccc(N[C@H](CCN5CCOCC5)CSc5ccccc5)c(S(=O)(=O)C(F)(F)F)c4)cc3)CC2)C1 [Navitoclax] (partner 0.5 µM) ?
Result: 1.1

Request: Moving on to COc1nc(C)cnc1NS(=O)(=O)c1cccnc1-c1ccc(-c2nnco2)cc1 [Zibotentan] + C[C@]1(O)C[C@@H](c2nc(-c3ccc4ccc(-c5ccccc5)nc4c3)c3c(N)nccn32)C1 [Linsitinib] (partner 1 µM)
Result: 0.654

Request: Now this one: O=c1cc(-c2cccc3c2Sc2ccccc2S3)oc(N2CCOCC2)c1 + CC(=O)c1c(C)c2cnc(Nc3ccc(N4CCNCC4)cn3)nc2n(C2CCCC2)c1=O [Palbociclib] (partner 0.5 µM)
Result: 0.369

Request: Moving on to the next compound: COc1nc(C)cnc1NS(=O)(=O)c1cccnc1-c1ccc(-c2nnco2)cc1 [Zibotentan] + CS(=O)(=O)CCNCc1ccc(-c2ccc3ncnc(Nc4ccc(OCc5cccc(F)c5)c(Cl)c4)c3c2)o1 [Lapatinib] (partner 2 µM)
Result: 0.846

Request: // repeat for O=c1cc(-c2cccc3c2Sc2ccccc2S3)oc(N2CCOCC2)c1 + CC1(C)CCC(c2ccc(Cl)cc2)=C(CN2CCN(c3ccc(C(=O)NS(=O)(=O)c4ccc(N[C@H](CCN5CCOCC5)CSc5ccccc5)c(S(=O)(=O)C(F)(F)F)c4)cc3)CC2)C1 [Navitoclax] (partner 0.5 µM) and report
Result: 0.943

Request: For COc1nc(C)cnc1NS(=O)(=O)c1cccnc1-c1ccc(-c2nnco2)cc1 [Zibotentan] + C[C@@H](Oc1cc(-c2cnn(C3CCNCC3)c2)cnc1N)c1c(Cl)ccc(F)c1Cl [Crizotinib] (partner 1 µM) then?
Result: 0.631

Request: Quick one: COc1nc(C)cnc1NS(=O)(=O)c1cccnc1-c1ccc(-c2nnco2)cc1 [Zibotentan] + Cc1cc(Nc2cc(N3CCN(C)CC3)nc(Sc3ccc(NC(=O)C4CC4)cc3)n2)n[nH]1 [Tozasertib] (partner 0.1 µM)
Result: 0.387

Request: Another compound: O=c1cc(-c2cccc3c2Sc2ccccc2S3)oc(N2CCOCC2)c1 + O=C(c1cc(Cc2n[nH]c(=O)c3ccccc23)ccc1F)N1CCN(C(=O)C2CC2)CC1 [Olaparib] (partner 8 µM)
Result: 0.345

Request: Item: COc1nc(C)cnc1NS(=O)(=O)c1cccnc1-c1ccc(-c2nnco2)cc1 [Zibotentan] + CC(C)C[C@H](NC(=O)[C@H](Cc1ccccc1)NC(=O)c1cnccn1)B(O)O [Bortezomib] (partner 0.002 µM)
Result: 0.966

Request: Now give it for COc1nc(C)cnc1NS(=O)(=O)c1cccnc1-c1ccc(-c2nnco2)cc1 [Zibotentan] + CC(=O)c1c(C)c2cnc(Nc3ccc(N4CCNCC4)cn3)nc2n(C2CCCC2)c1=O [Palbociclib] (partner 0.5 µM) too.
Result: 0.356

Hey, just so you know, these numbers are from the supplement of paper PMC10307832.
